Data credit: PubChem BioAssay (NCI)

test system: CAKI-1 renal; assay: NCI tumour cell line growth inhibition, 48 h; in the data active = GI50 below about 0.43 µM; inactive = the rest
Outcomes: TRUE (active), FALSE (inactive)

1) Cc1nn(-c2ccc(S(=O)(=O)[O-])cc2)c([O-])c1N=[N+](C)c1ccc(-c2ccc(N=Nc3ccc4c(S(=O)(=O)[O-])cc(S(=O)(=O)[O-])c(N)c4c3[O-])c([O-])c2)cc1[O-].[Cu+2].[Cu+2].[Na+] = FALSE
2) COc1cc2c3c(cccc3c1)C(=O)N(CCN1CCCC1)C2=O = FALSE
3) Cc1nn(-c2ccc(F)cc2)c2ncnc(Nc3ccc(NC(=O)Nc4ccc(Cl)c(C(F)(F)F)c4)cc3)c12 = FALSE
4) Cc1cc([C@@H](C)Nc2ccccc2C(=O)O)c2nc(N3CCOCC3)cc(=O)n2c1 = FALSE
5) COc1c(C2CC(=O)Nc3c2cnn3Cc2ccco2)cc2c(c1OC)OCO2 (stereo not drawn) = FALSE
6) COC1(C(=O)N2Cc3nc(Cl)nc(N[C@H](C)c4cc(N)cc(C(F)(F)F)c4)c3C2)CCOCC1 = FALSE
7) Cc1ccc2c(C(C[N+](=O)[O-])c3cccs3)c(-c3ccccc3)[nH]c2c1 (stereo not drawn) = FALSE
8) Nc1n[nH]c2ccc([C@@H]3Nc4ccc5[nH]ncc5c4[C@H]4[C@H]5CCC(C5)[C@H]43)cc12 = FALSE
9) COc1ccc(-c2cc(-c3cc(Cl)ccc3Cl)nc3[nH]c(-c4cc(F)c(Cl)cc4Cl)cc(=O)c23)cc1 = FALSE
10) COc1cc2ncn(-c3cc(OCc4ccccc4Cl)c(C(N)=O)s3)c2cc1OC = FALSE
11) O=C(/C=C/c1ccc(Cl)cc1)c1ccc(Cl)cc1Cl = FALSE
12) COc1cc(-n2cc(-c3ccc(Cl)c(Cl)c3)nc2SCc2ccccc2)cc(OC)c1OC = FALSE
13) Cc1[nH]c(/C=C2\C(=O)Nc3ccc(S(=O)(=O)Cc4c(Cl)cccc4Cl)cc32)c(C)c1C(=O)N1CCC[C@@H]1CN1CCCC1 = FALSE
14) COc1ccc(C(=S)N2CCN(c3cccc(Cl)c3)CC2)cc1 = FALSE
15) CCc1c2c(nc3cc4c(cc13)OCO4)-c1cc3c(c(=O)n1C2)COC(=O)[C@]3(O)CC = TRUE
16) O=C(c1cccs1)c1c(C(F)(F)F)n([O-])c2ccccc2[n+]1=O = FALSE
17) O=C(c1ccc2ccccc2c1)c1c(C(F)(F)F)n([O-])c2cc(Cl)c(Cl)cc2[n+]1=O = FALSE
18) CC(=O)c1ccc(Nc2cc(-c3ccccc3)nc3c(O)cccc23)cc1 = FALSE

###

test system: SN12C renal; assay: NCI tumour cell line growth inhibition, 48 h
In this section we review reported TGI values for a set of compounds.
endpoint.label: TGI

1. Cc1ccc2c(C(C[N+](=O)[O-])c3cccs3)c(-c3ccccc3)[nH]c2c1 (centres undefined) = 7.01 µM
2. COC(=O)C(=O)CC(=O)CCn1ncc(Cl)c(Cl)c1=O = 29.9 µM
3. N#CC(=C1SCS1)[N+](=O)[O-] = 18.4 µM
4. Nc1ccccc1Nc1ccccc1C(=O)[O-].Nc1ccccc1Nc1ccccc1C(=O)[O-].[Cu+2] = > 100 µM

###

In this section we review reported TGI values for a set of compounds.
system: NCI-H460 lung; assay: NCI tumour cell line growth inhibition, 48 h
endpoint.label: TGI (µM)

1. CN1CCN(Cc2ccc(C(=O)Nc3cncc(C#Cc4cnc(N)c5ccccc45)c3)cc2C(F)(F)F)CC1 = 3.39
2. CC(C)(C)c1cc(O)c(O)c(C(C)(C)C)c1 = 10
3. O=C(NS(=O)(=O)Nc1ccc(Cl)cc1)OCc1ccc(Cl)cc1Cl = 29.9
4. COc1ccc2c(c1)c1c(n2CCN2CCOCC2)-c2ccccc2CC1 = 89.2
5. CC(=O)NC1C(OCc2ccccc2)OC(CO)C(O)C1OCC(=O)N[C@@H](C)C(=O)N[C@H](CCC(=O)NCCNCCNc1c2ccccc2nc2cccc([N+](=O)[O-])c12)C(N)=O (stereo not given in full) = 36.5
6. Cc1ccc2c(C(C[N+](=O)[O-])c3cccs3)c(-c3ccccc3)[nH]c2c1 (stereo not given) = 6.14
7. CCC(C)C1NC(=O)c2nc(oc2-c2ccccc2)-c2csc(n2)-c2csc(n2)-c2nc(oc2C)-c2coc(n2)CNC(=O)C(C(C)CC)NC1=O (stereo not given) = 0.0268
8. CC1C(c2cc(C(C)(C)C)c(O)c(C(C)(C)C)c2)c2cc3c(cc2OC1N1CCOCC1)OCO3 (stereo not given) = 87
9. Cc1cn(C2C=CC(COP(=O)(OCC3=CC(=O)c4ccccc4C3=O)N(C)CCCCCl)O2)c(=O)[nH]c1=O (stereo not given) = 11.2

###

test system: HS 578T breast; assay: NCI tumour cell line growth inhibition, 48 h
In this section we review reported TGI values for a set of compounds.
endpoint.label: TGI (µM)

1. COC(=O)C1=C(C(=O)OC)C2OC1C1C2C2(C)C(C)=C(C)C1(C)S2=O (stereo not drawn) = 51.4
2. CC(C)(C)OC(=O)NC(Cc1ccccc1)C(=O)OCN1C(=O)C2C3C=CC(C2C1=O)C1C2C(=O)N(COC(=O)C(Cc4ccccc4)NC(=O)OC(C)(C)C)C(=O)C2C31 (stereo not drawn) = 54.3
3. O=c1[nH]c2nc3ccccc3c(=O)n2/c1=C/c1ccc(O)cc1 = 69.7
4. CCN(CC)CCOC(c1cc(OC)ccc1OC)c1ccc2n1-c1ccccc1OC2 (stereo not drawn) = 30.9
5. N#Cc1c(N)[nH]c(=S)c(C#N)c1-c1cccc(Cl)c1 = 94.1

###

test system: DLD-1 colon; experiment: NCI tumour cell line growth inhibition, 48 h
endpoint.label: TGI

1. CCCCCCCCCCCCCCCC(=O)NCC(COP(=O)([O-])OCC[N+](C)(C)C)OCC (centres undefined) = 16.9 µM
2. O=c1[nH]c2ccccc2cc1C(Cl)=C(Cl)Cl = > 100 µM
3. Cc1c(Cl)cccc1NC(=O)C(=O)C1C(=O)CC(C)(C)CC1=O = > 100 µM
4. CCOC(=O)C(OCC1CC=CCC1)Sc1ccccc1 (centres undefined) = > 100 µM
5. COC1O[C@H]2CCN(C(=O)OCc3ccccc3)[C@H]2[C@H]1OCc1ccccc1 (some centres undefined) = > 100 µM
6. CCOC(=O)C1(CC)CCCCC(=O)N1 (centres undefined) = > 100 µM
7. CCOC(=O)CC1=Nc2ccccc2SC1 = > 100 µM
8. COc1ccc2nc(-c3ccc(OCc4ccccc4)cc3)ccc2c1 = > 100 µM
9. Cc1ccccc1C(C#N)C(=O)C(=O)Nc1nc([N+](=O)[O-])cs1 (centres undefined) = > 100 µM
10. COc1cc2c(c3c1C=CCO3)C(=O)c1ccccc1C2=O = 71.1 µM
11. CCCCCCCCCCCCC(=O)OC(c1cnco1)c1nc(C(O)CC(O)C(O)C(C)O)co1 (centres undefined) = > 100 µM
12. COC(=O)C(=O)CC(=O)CCn1ncc(Cl)c(Cl)c1=O = 24.9 µM
13. COc1ccc(/C(=C/n2ccnc2)C(=O)c2ccc(OC)c(OC)c2)cc1 = > 100 µM
14. COc1ccc(C2C(Cl)C(=O)N2NC(=O)c2ccc(NC(C)=O)cc2)cc1 (centres undefined) = > 100 µM

###

tested on: UO-31 renal; assay: NCI tumour cell line growth inhibition, 48 h
In this section we review reported TGI values for a set of compounds.
endpoint.label: TGI

1) O=C1CC(C(O)CO)CC(=O)N1 (centres undefined) = > 100 µM
2) O=C(NNc1nc2c(F)cccc2n2cccc12)c1cnccn1 = 13.6 µM
3) C[C@@H]1CC[C@H]2C(COCC3=C(C(F)(F)F)O[C@@H]4O[C@@]5(C)CC[C@H]6[C@H](C)CC[C@@H]3[C@@]46OO5)=C(C(F)(F)F)O[C@@H]3O[C@@]4(C)CC[C@@H]1[C@]32OO4 = > 100 µM
4) COc1cc(COC(=O)N[C@H](C(=O)O)C(C)(C)C)c([N+](=O)[O-])cc1OC = > 100 µM

###

test system: SK-MEL-5 melanoma; experiment: NCI tumour cell line growth inhibition, 48 h
endpoint.label: GI50

1. CCCCCCCCCCCCCC(=S)NCCCC[C@H](NC(=O)OCc1ccccc1)C(=O)Nc1ccccc1 = 8.39 µM
2. CCn1c(-c2nonc2N)nc2c(C#CCN)ncc(OCCCN)c21 = > 25 µM
3. C=C1C(=O)O[C@H]2[C@H]1CC/C(CNC(=O)c1c[nH]c3ccc(F)cc13)=C\CC[C@@]1(C)O[C@@H]21 = 2.25 µM
4. COc1ccc(NC(=O)Nc2n[nH]c3ccccc23)cc1 = > 100 µM
5. O=C(CSc1nc2ccc([N+](=O)[O-])cc2[nH]1)Nc1ccc(F)c(Cl)c1 = 1.22 µM
